# ASSAY_PROTOCOL: Relative solubilities in water, 0.1% HCl and methanol
# Type: physicochemical
# PARTICULARS: 25 °C, organic solvent or mixture; solvent methanol; 25 deg; read-out: Solubility at 25 deg, methanol
REPORTED_ENDPOINT: solubility (µg/mL)
# unit: µg/mL | format: bare number

Quick one: give measured solubility for "CC1=NN(c2ccc(C)c(C)c2)C(=O)/C1=N\Nc1cccc(-c2cccc(C(=O)O)c2)c1O.NCCO.NCCO"
6400

Quick one: give measured solubility for "CC1=NN(c2ccc(C)c(C)c2)C(=O)/C1=N\Nc1cccc(-c2cccc(C(=O)O)c2)c1O"
1900

Values compiled from patent US8846024B2.
